Reference for the values: ChEMBL document CHEMBL1268900

# test summary: Drug level in rat brain at 30 mg/kg, po after 4 hrs
# Format: ADME, organism-based
# Design: dose 30 mg/kg, route oral
# condition: read-out: Drug uptake
Each entry below carries its recorded concentration at 4 h.

CCN(C)C(=O)c1ccc2nc(NC(=O)c3cccc(C#N)c3)n(CCCOC)c2n1    450 ng/g

**Q:** Look up concentration at 4 h: CCN(C)C(=O)c1cnc2c(c1)nc(NC(=O)c1cccc(C#N)c1)n2CCCOC
**A:** 210 ng/g

---

# test summary: Plasma concentration in rat at 30 mg/kg, po after 4 hrs
# Assay type: ADME, organism-based
# Set-up: dose 30 mg/kg, route oral
readout: concentration at 4 h
Returns: string containing the numeric result and its unit.

CCN(C)C(=O)c1cnc2c(c1)nc(NC(=O)c1cccc(C#N)c1)n2CCCOC    2290 ng/mL

// below: concentration at 4 h requested for another compound
**Q:** What value of concentration at 4 h has been recorded for this entry: CCN(C)C(=O)c1ccc2nc(NC(=O)c3cccc(C#N)c3)n(CCCOC)c2n1
**A:** 2380 ng/mL

---

# target: Adenosine receptor A2a (Homo sapiens, UniProt P29274)
# Sequence (P29274 whole entry): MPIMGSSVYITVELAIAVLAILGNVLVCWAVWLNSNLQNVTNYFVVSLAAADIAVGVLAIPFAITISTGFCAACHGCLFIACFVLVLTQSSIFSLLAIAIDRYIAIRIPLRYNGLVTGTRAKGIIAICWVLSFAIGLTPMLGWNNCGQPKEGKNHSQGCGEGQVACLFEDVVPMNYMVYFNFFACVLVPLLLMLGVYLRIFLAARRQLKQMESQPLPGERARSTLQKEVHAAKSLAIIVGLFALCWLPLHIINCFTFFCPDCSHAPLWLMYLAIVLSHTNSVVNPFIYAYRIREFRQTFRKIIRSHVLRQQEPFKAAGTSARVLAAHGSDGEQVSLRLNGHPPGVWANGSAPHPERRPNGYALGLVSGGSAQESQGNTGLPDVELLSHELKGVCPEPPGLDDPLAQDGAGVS
# test summary: Displacement of [3H]SCH58261 from human recombinant A2A receptor expressed in HEK293 cells
Hi! Could you tag entries with Ki below 200 nM as fulfilled, and those at or above as not fulfilled? Much appreciated.

Here are 4 molecules together with their reported answers.
N#Cc1cccc(C(=O)Nc2nc3cc(C(=O)N4CCCCC4)cnc3n2C2CCOCC2)c1    fulfilled
COCCCn1c(NC(=O)c2cccc(C#N)c2)nc2cc(C(=O)NCc3cccc(OC)c3)ccc21    fulfilled
CCCCCn1c(NC(=O)c2cccc(C#N)c2)nc2cc(C(=O)N3CCCCC3)cnc21    not fulfilled
COCCCn1c(NC(=O)c2cccc(Cl)c2)nc2cc(C(=O)NCc3cccc(OC)c3)ccc21    not fulfilled

Read the next record carefully.
**Q:** Say whether its Ki is strictly beneath 200 nM. Entry: CCCCNC(=O)c1cnc2c(c1)nc(NC(=O)c1cccc(C#N)c1)n2CCCOC
**A:** fulfilled

---

# test summary: Metabolic stability in rat liver microsomes assessed as compound remaining after 30 mins
# Format: ADME, Microsome
# condition: read-out: Stability
As shown below, each of these molecules has a reported remaining at 0.5 h value.
Respond with the bare value in %.

CCCCNC(=O)c1ccc2c(c1)nc(NC(=O)c1cccc(C#N)c1)n2CCCOC    38
CCCCNC(=O)c1cnc2c(c1)nc(NC(=O)c1cccc(C#N)c1)n2CCCOC    73
COCCCn1c(NC(=O)c2cccc(C#N)c2)nc2cc(C(=O)N3CCCCC3)cnc21    36
CCN(C)C(=O)c1ccc2nc(NC(=O)c3cccc(C#N)c3)n(CCCOC)c2n1    52

Now turn to the next molecule.
**Q:** Requested read-out: remaining at 0.5 h. Entry: CCN(CC)C(=O)c1ccc2nc(NC(=O)c3cccc(C#N)c3)n(CCCOC)c2c1
**A:** 19

---

# test summary: Ratio of drug level in brain to plasma of rat at 30 mg/kg, po after 1 hr
# Assay type: ADME, organism-based
# Set-up: dose 30 mg/kg, route oral
# condition: read-out: BPR
// values below are reported Kp at 1 h
Answer with a bare number; do not write a unit.

CCN(C)C(=O)c1cnc2c(c1)nc(NC(=O)c1cccc(C#N)c1)n2CCCOC    0.11

// switching to the query molecule
**Q:** Endpoint output: Kp at 1 h of CCN(C)C(=O)c1ccc2nc(NC(=O)c3cccc(C#N)c3)n(CCCOC)c2n1 . Value?
**A:** 0.23

---

# reported pKi; entries follow
# target: Adenosine receptor A2a (Homo sapiens, UniProt P29274)
# test summary: Displacement of [3H]SCH58261 from human recombinant A2A receptor expressed in HEK293 cells
# Format: cell-based
pKi (log units): -log10 of the concentration in mol/L.

Consider the reported pKi for these compounds:
COc1cccc(-n2c(NC(=O)c3cccc(C#N)c3)nc3cc(C(=O)N4CCCCC4)cnc32)c1    6.49
COCCCn1c(NC(=O)c2cccc(C#N)c2)nc2ccc(C(=O)N3CCCCC3)cc21    7.77
COCCCn1c(NC(=O)c2ccccc2Cl)nc2cc(C(=O)NCc3cccc(OC)c3)ccc21    5.33

Then there is this compound:
**Q:** Bench note: what pKi did CCN(CC)C(=O)c1ccc2nc(NC(=O)c3cccc(C#N)c3)n(CCCOC)c2c1 show?
**A:** 8.51

---

# test summary: Metabolic stability in rat liver microsomes assessed as compound remaining after 30 mins
# Format: ADME, Microsome
# condition: read-out: Stability
Overview of reported remaining at 0.5 h across a group of compounds:
The response must be a number in % with no trailing unit.

COCCCn1c(NC(=O)c2cccc(C#N)c2)nc2ccc(C(=O)N3CCCCC3)cc21    12
COCCCn1c(NC(=O)c2cccc(C#N)c2)nc2cc(C(=O)N3CCCCC3)ccc21    16

Attention now shifts to the item below.
**Q:** Quick check: remaining at 0.5 h of COCCCn1c(NC(=O)c2cccc(C#N)c2)nc2ccc(C(=O)N(C)C(C)C)nc21 ?
**A:** 14

---

# test summary: Metabolic stability in human liver microsomes assessed as compound remaining after 30 mins
# Format: ADME, Microsome
# condition: read-out: Stability
# note: exactly 30% is not below, so it is n; use y for remaining at 0.5 h strictly under it

Take a look at these entries with their results.
COCCCn1c(NC(=O)c2cccc(C#N)c2)nc2cc(C(=O)N3CCCCC3)ccc21    n
CCN(C)C(=O)c1ccc2nc(NC(=O)c3cccc(C#N)c3)n(CCCOC)c2n1    n
COCCCn1c(NC(=O)c2cccc(C#N)c2)nc2cc(C(=O)N3CCCCC3)cnc21    n

# ---- query compound ----
**Q:** Take the compound CCN(CC)C(=O)c1ccc2nc(NC(=O)c3cccc(C#N)c3)n(CCCOC)c2c1 and say whether its remaining at 0.5 h is less than 30%.
**A:** n

---

# target: Adenosine receptor A2a (Rattus norvegicus, UniProt P30543)
# Sequence (P30543 whole entry): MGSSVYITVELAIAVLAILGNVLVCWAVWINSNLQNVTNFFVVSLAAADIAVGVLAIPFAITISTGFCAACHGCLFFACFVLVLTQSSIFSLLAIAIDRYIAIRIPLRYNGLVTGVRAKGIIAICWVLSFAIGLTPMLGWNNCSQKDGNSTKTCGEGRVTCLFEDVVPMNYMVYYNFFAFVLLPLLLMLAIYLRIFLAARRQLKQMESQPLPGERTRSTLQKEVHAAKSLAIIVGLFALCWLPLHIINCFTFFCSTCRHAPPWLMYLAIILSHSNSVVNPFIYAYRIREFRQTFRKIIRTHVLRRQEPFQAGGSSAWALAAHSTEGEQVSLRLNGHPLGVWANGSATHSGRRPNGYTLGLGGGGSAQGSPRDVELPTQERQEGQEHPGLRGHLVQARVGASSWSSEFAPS
# test summary: Antagonist activity at rat A2A receptor by cAMP functional assay
readout: pKi
A value of pKi is the negative decimal logarithm of a concentration given in moles per litre.

Below, 6 compounds whose answers are already recorded.
COCCCn1c(NC(=O)c2cccc(C#N)c2)nc2ccc(C(=O)N3CCCCC3)cc21    7.07
CCN(CC)C(=O)c1ccc2nc(NC(=O)c3cccc(C#N)c3)n(CCCOC)c2c1    7.80
CCN(CC)C(=O)c1cnc2c(c1)nc(NC(=O)c1cccc(C#N)c1)n2CCCOC    7.23
CCN(C)C(=O)c1ccc2nc(NC(=O)c3cccc(C#N)c3)n(CCCOC)c2n1    7.64
COCCCn1c(NC(=O)c2cccc(C#N)c2)nc2ccc(C(=O)N(C)C(C)C)nc21    8.37
COCCCn1c(NC(=O)c2cccc(C#N)c2)nc2cc(C(=O)N(C)C(C)C)cnc21    7.92

Please find the next compound below.
**Q:** // pKi lookup, key: CCN(C)C(=O)c1cnc2c(c1)nc(NC(=O)c1cccc(C#N)c1)n2CCCOC
**A:** 7.62

---

# test summary: Ratio of drug level in brain to plasma of rat at 30 mg/kg, po after 4 hrs
# Type: ADME, organism-based
# Design: dose 30 mg/kg, route oral
# condition: read-out: BPR
readout: Kp at 4 h
Lab note: jot down the number only; don't add units.

CCN(C)C(=O)c1ccc2nc(NC(=O)c3cccc(C#N)c3)n(CCCOC)c2n1    0.19

**Q:** Need Kp at 4 h of CCN(C)C(=O)c1cnc2c(c1)nc(NC(=O)c1cccc(C#N)c1)n2CCCOC , thanks.
**A:** 0.09

---

# target: Adenosine receptor A2a (Homo sapiens)
# test summary: Displacement of [3H]SCH58261 from human recombinant A2A receptor expressed in HEK293 cells
# log10 of Ki per entry
Units before log transform: nM; reported quantity: Ki; transform: log10.

These solved cases illustrate the format of a correct answer.
COCCCn1c(NC(=O)c2cccc(C#N)c2)nc2cc(C(=O)N(C)C(C)C)cnc21    1.11
N#Cc1cccc(C(=O)Nc2nc3cc(C(=O)N4CCCCC4)cnc3n2Cc2ccncc2)c1    1.59

**Q:** Endpoint output: log10 of Ki of CCOCCn1c(NC(=O)c2cccc(C#N)c2)nc2cc(C(=O)N3CCOCC3)cnc21 . Value?
**A:** 3.52

**Q:** Name the recorded log10 of Ki for CCN(CC)C(=O)c1cnc2c(c1)nc(NC(=O)c1cccc(C#N)c1)n2CCCOC .
**A:** 1.20

**Q:** log10 of Ki for COCCCn1c(NC(=O)c2cccc(OC)c2)nc2cc(C(=O)NCc3cccc(OC)c3)ccc21 ?
**A:** 3.38

**Q:** Recorded log10 of Ki of COCCCn1c(NC(=O)c2cccc(C#N)c2)nc2cc(C(=O)N3CCOCC3)cnc21 , please.
**A:** 1.96

**Q:** # log10 of Ki lookup, item COCCCn1c(NC(=O)c2ccc(C#N)cc2)nc2cc(C(=O)NCc3cccc(OC)c3)ccc21
**A:** 3.22
